Test: Glucuronidation of 4-HPR by human intestinal microsomes
Assay type: in vitro ADME
Conditions: human, human intestinal microsomes, pH 7.5
parameter: Km at 3 h (µM)
Please give a number only; it is taken to be in µM.

[in] What does the data say about its Km at 3 h? Entry: CC1=C(/C=C/C(C)=C/C=C/C(C)=C/C(=O)Nc2ccc(O)cc2)C(C)(C)CCC1 [4-HPR, fenretinide]
[out] 1210
